Molecular target: F508delCFTR (Homo sapiens, UniProt P13569, DEL508-508)
Construct: expressed in transfected cells; host or cells: CFBE41o- human lung-derived epithelial cells (CFBE4lo-F508delCFTR-HRP), doxycycline-inducible
Sequence (P13569 with tags, fused parts or gaps DEL508-508): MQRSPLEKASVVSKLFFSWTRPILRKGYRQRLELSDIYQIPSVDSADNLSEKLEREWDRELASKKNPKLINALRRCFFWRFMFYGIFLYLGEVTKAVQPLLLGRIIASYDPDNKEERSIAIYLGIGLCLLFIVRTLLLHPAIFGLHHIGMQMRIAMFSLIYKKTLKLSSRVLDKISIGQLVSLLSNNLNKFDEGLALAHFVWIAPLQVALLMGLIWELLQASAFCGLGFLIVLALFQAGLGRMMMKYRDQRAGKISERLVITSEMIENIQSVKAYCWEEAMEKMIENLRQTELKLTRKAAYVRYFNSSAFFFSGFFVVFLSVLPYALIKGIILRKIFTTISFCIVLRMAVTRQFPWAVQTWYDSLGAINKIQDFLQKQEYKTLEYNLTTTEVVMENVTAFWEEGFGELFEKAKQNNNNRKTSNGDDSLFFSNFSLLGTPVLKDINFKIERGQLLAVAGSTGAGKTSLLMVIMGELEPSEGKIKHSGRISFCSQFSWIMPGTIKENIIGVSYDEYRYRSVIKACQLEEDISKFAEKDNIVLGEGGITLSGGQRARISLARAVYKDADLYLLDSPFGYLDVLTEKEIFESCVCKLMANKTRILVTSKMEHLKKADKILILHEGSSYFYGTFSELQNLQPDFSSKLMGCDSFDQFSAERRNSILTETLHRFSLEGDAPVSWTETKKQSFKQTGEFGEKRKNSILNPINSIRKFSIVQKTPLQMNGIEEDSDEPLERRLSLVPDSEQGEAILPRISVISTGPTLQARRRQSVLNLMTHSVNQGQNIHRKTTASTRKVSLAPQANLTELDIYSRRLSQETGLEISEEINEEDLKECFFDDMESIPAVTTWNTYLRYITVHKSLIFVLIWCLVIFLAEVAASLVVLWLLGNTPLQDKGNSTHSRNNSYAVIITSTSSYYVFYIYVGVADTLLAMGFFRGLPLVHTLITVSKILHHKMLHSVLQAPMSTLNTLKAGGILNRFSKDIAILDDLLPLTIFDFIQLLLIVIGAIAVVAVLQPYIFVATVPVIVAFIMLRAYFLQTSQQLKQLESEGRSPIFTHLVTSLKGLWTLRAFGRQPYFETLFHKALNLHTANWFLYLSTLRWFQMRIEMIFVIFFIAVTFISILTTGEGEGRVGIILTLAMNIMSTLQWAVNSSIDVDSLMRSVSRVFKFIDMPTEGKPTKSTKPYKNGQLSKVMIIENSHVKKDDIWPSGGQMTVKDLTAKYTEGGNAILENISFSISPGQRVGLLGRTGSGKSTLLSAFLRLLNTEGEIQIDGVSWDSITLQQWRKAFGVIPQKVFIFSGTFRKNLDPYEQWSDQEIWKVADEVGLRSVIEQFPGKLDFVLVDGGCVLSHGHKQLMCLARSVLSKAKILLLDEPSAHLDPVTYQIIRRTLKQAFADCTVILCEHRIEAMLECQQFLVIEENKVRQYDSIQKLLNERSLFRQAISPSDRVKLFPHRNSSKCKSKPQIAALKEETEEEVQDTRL
Experiment: Cell Surface Expression-Horse Radish Peroxidase (CSE-HRP) Assay;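 further: co-corrector and positive control are both the same reference corrector at 2 µM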
Assay type: cell-based
Details: with co-corrector (2 μM); maximum at any tested concentration, normalized to on-plate positive control
measured.property: Maximum % activity (with co-corrector)

1. COc1ccc(C(F)(F)F)cc1CN[C@@H]1[C@@H](C(C)(C)C)[C@H](C(=O)O)N(C(=O)OC(C)C)[C@@H]1c1cccnc1N(C)C (racemic) : +++ (≥350)
2. COc1ncc(CC(C)C)cc1CN[C@H]1[C@H](C(C)(C)C)[C@@H](C(=O)O)N(C(=O)C2CCCCC2)[C@H]1c1ccccc1 : +++ (≥350)

Hey, just so you know, these numbers are from patent US20180099931A1.
